Kindly state IC50 for each of the entries shown.
# Tested on: SISO (cervical cancer) cells
# Assay: Crystal violet assay, SISO
# Format: cell-based, Human
# Measurement Conditions: read-out: IC50 SISO, 96 h
Express the result in nM but write the number alone.

INPUT: Suppose we examine the compound N.N.[Cl][Pt][Cl] [cisplatin] ; what IC50 value has been reported?
OUTPUT: 280

INPUT: Moving on to N.N.[Cl-].[Cl-].[OH-].[OH-].[Pt+4]
OUTPUT: 1700

---

# Tested on: KYSE70-oxo oxoplatin-resistant cells
# Assay: Crystal violet assay, KYSE70-oxo
# Assay type: cell-based, Human
# Measurement Conditions: read-out: IC50 KYSE70-oxo; crystal violet, 96 h; oxoplatin-resistant line
Kindly state IC50 for each of the entries shown.
Enter the number, and then the unit.

INPUT: Missing value: IC50, KYSE70-oxo oxoplatin-resistant cells, entry N.N.[Cl-].[Cl-].[OH-].[OH-].[Pt+4] . Fill in?
OUTPUT: 8.8 µM

INPUT: Moving on to N.N.[Cl][Pt][Cl] [cisplatin]
OUTPUT: 1.7 µM
